Header: Ki / Retinoic acid receptor beta (Homo sapiens, UniProt P10826) / multiple publications
Kindly apply the following: Criterion met if Ki is less than 200 nM, Criterion not met in every other case.

Q) Please check: Ki for CC1(C)CCOc2ccc(-c3ccc4cc(C(=O)O)ccc4c3)cc21 , strictly under 200 nM or not?
A) Criterion not met

Q) Find out if reported Ki for CC(/C=C/c1sccc1-c1cc(C(C)C)cc(C(C)C)c1OCC(F)(F)F)=C\C(=O)O is less than 200 nM
A) Criterion not met

Q) # check: Ki < 200 nM for COc1cc2c(cc1\C(C)=C/C=C/C(C)=C/C(=O)O)C(C)(C)CCC2(C)C
A) Criterion not met

Q) Does this molecule meet the criterion Ki < 200 nM? CC1(c2cc(-c3ccc4cc(C(=O)O)ccc4c3)ccc2O)CCCCC1
A) Criterion not met

Q) Does this molecule meet the criterion Ki < 200 nM? CCCOc1cc2c(cc1\C(C)=C/C=C/C(C)=C/C(=O)O)C(C)(C)CCC2(C)C
A) Criterion not met

Q) Lab log: compare recorded Ki with 200 nM; is it strictly lower for COc1ccc(/C(C)=C/c2ccc(C(=O)O)cc2)cc1C(C)(C)C ?
A) Criterion met

Q) Dear colleague, could you confirm whether Ki of O=C(O)c1ccc2c(c1)OCC(c1ccc(O)c(C34C[C@H]5C[C@@H](C3)C[C@@H](C4)C5)c1)=C2 falls below 200 nM? Thanks.
A) Criterion not met

Q) Check if Ki falls below 200 nM for O=C(O)c1ccc2cc(-c3ccc(CC(O)CO)c(C45CC6CC(CC(C6)C4)C5)c3)ccc2c1 (configuration not stated) .
A) Criterion met

Q) Is Ki of CC(/C=C/c1ccncc1-c1cc(C(C)C)cc(C(C)C)c1OCC(F)(F)F)=C\C(=O)O strictly below 200 nM?
A) Criterion not met

Q) For this molecule, is Ki lower than 200 nM? O=C(O)c1ccc2cc(-c3ccc(OCC(O)CO)c(C45CC6CC(CC(C6)C4)C5)c3)ccc2c1 (configuration not stated)
A) Criterion met

Q) Does this molecule meet the criterion Ki < 200 nM? CC(/C=C/[C@@]1(C)CCCC1c1ccc2c(c1)C(C)(C)CCC2(C)C)=C\C(=O)O (single isomer, unassigned)
A) Criterion not met

Q) In the record for CC1(C)CCC(C)(C)c2cc3cc(-c4ccc(C(=O)O)cc4)ccc3cc21 , is Ki less than 200 nM?
A) Criterion met

Q) In the record for CC1=C(/C=C/C(C)=C/C=C/C(C)=C/C(=O)Nc2ccc(CC3OC(C(=O)O)C(O)C(O)C3O)cc2)C(C)(C)CCC1 (configuration not stated) , is Ki less than 200 nM?
A) Criterion not met

Q) Hi there! Is Ki for CC(C)(C)c1cc(-c2ccc3cc(C(=O)O)ccc3c2)ccc1O below 200 nM, do you know?
A) Criterion not met

Q) Given the entry O=C(O)c1ccc2cc(-c3ccc(CO)c(C45CC6CC(CC(C6)C4)C5)c3)ccc2c1 , would its reported Ki be below 200 nM?
A) Criterion met

Q) Dear reviewer, please state whether CCOc1cc2c(cc1\C(C)=C/C=C/C(C)=C/C(=O)O)C(C)(C)CCC2(C)C has Ki strictly beneath 200 nM.
A) Criterion not met

Q) Determine if CC1=C(/C=C/C(C)=C/C=C/C(C)=C/C(=O)Nc2ccc(O[C@@H]3O[C@@H](C(=O)O)[C@@H](O)[C@H](O)[C@@H]3O)cc2)C(C)(C)CCC1 shows Ki strictly lower than 200 nM.
A) Criterion not met

Q) Is it true that Ki reported for CC(/C=C/C1(c2ccc3c(c2)C(C)(C)CCC3(C)C)CC1)=C\C(=O)O is less than 200 nM?
A) Criterion not met

Q) Bench note: check whether O=C(O)c1ccc2cc(-c3ccc(CCCO)c(C45CC6CC(CC(C6)C4)C5)c3)ccc2c1 shows Ki below 200 nM
A) Criterion met

Q) Is Ki of CC(/C=C/C1(c2ccc3c(c2)C(C)(C)CCC3(C)C)CCCC1)=C\C(=O)O strictly below 200 nM?
A) Criterion not met

Q) Problem: For the molecule CCc1cc(-c2ccsc2/C=C/C(C)=C/C(=O)O)c(OCCCF)c(C(C)(C)C)c1 , is Ki under 200 nM?
A) Criterion not met

Q) Consider the molecule CC(/C=C/c1sccc1-c1cc(C(C)C)cc(C(C)C)c1OCCCF)=C\C(=O)O . Is its Ki strictly less than 200 nM?
A) Criterion not met

Q) Input COc1ccc(C2=Cc3ccc(C(=O)O)cc3OC2)cc1C12C[C@H]3C[C@@H](C1)C[C@@H](C2)C3 ; condition: Ki strictly below 200 nM. Does it hold?
A) Criterion met

Q) Strictly below 200 nM: is that where Ki of CCCOc1c(C2=C(/C=C/C(C)=C/C(=O)O)CCC2)cc(C(C)C)cc1C(C)C sits?
A) Criterion not met

Q) Lab note: confirm whether the reported Ki for this molecule is below 200 nM, equality not counting. molecule: COc1ccc(-c2ccc3cc(C(=O)O)ccc3c2)cc1C12CC3CC(CC(C3)C1)C2
A) Criterion met

Q) Answer whether the molecule O=C(O)c1ccc(/C=C/c2ccc(O)c(C34CC5CC(CC(C5)C3)C4)c2)cc1 has Ki strictly less than 200 nM
A) Criterion met

Q) Lab note: confirm whether the reported Ki for this molecule is below 200 nM, equality not counting. molecule: CCCCCCOc1ccc(-c2ccc3cc(C(=O)O)ccc3c2)cc1C12CC3CC(CC(C3)C1)C2
A) Criterion not met

Q) Is the reported Ki for CC1(C)CCC(C)(C)c2cc(C3=Cc4ccc(C(=O)O)cc4OC3)ccc21 strictly below 200 nM?
A) Criterion met

Q) Report whether reported Ki is lower than 200 nM (strictly) for C/C(=C\c1ccc(C(=O)O)cc1)c1ccc(O)c(C2(C)CCCCC2)c1
A) Criterion met

Q) Is it true that Ki reported for CC(/C=C/[C@H]1CCC[C@@H]1c1ccc2c(c1)C(C)(C)CCC2(C)C)=C\C(=O)O is less than 200 nM?
A) Criterion not met

Q) Does CO/N=C(\c1ccc(C(=O)O)cc1)c1cc2c(cc1C)C(C)(C)CCC2(C)C have Ki strictly under 200 nM?
A) Criterion not met

Q) Ki strictly < 200 nM for this molecule? CC(/C=C/C1=C(c2cc(C(C)C)cc(C(C)C)c2OCC(F)(F)F)CCC1)=C\C(=O)O
A) Criterion not met

Q) Take the molecule C=C(c1ccc(C(=O)O)cc1)c1ccc2c(c1)C(C)(C)CCC2(C)C and say whether its Ki is less than 200 nM.
A) Criterion not met

Q) is_below(Ki, 200 nM) for CC(/C=C/C1(c2cc3c(cc2C)C(C)(C)CCC3(C)C)CCCC1)=C\C(=O)O ?
A) Criterion not met

Q) Please let me know if CC(/C=C/c1sccc1-c1cc(C(C)C)cc(C(C)C)c1OCC(F)F)=C\C(=O)O shows Ki below 200 nM.
A) Criterion not met

Q) In plain terms, does CC(/C=C/c1ccccc1-c1cc(C(C)(C)C)cc(C(C)(C)C)c1OCCCF)=C\C(=O)O come in under 200 nM for Ki?
A) Criterion not met

Q) Does the reported Ki of the following molecule sit strictly below 200 nM? CC(C)(C)c1cc(C2=Cc3ccc(C(=O)O)cc3OC2)ccc1O
A) Criterion not met
